Molecular target: SARS-CoV-2 Papain like protease (PLpro) (Severe acute respiratory syndrome coronavirus 2 (2019-nCoV) (SARS-CoV-2), UniProt P0DTD1)
Experiment: Papain Like Protease (PLpro) biochemical assay with profluorogenic substrate Z-RLRGG-AMC
Details: SARS-CoV-2 PLpro 6.25 nM, 25 μM Z-RLRGG-AMC substrate, 60 minute reaction; read-out: IC50
pIC50 values by entry
Scale explanation: pIC50 corresponds to minus log10 of a concentration expressed in moles per litre.

Cc1ccc(N2CCN(C)CC2)cc1C(=O)NC(C)c1cc(-c2cc(C(=O)N(C)C)c[nH]2)cc2ccccc12 (stereo not shown) [Example 229] = 8.22

Enquiry: # query: pIC50 of entry Cc1ccccc1C(=O)N[C@H](C)c1cc(-c2cnn(C)c2)nc2ccccc12 [Example 49]
Return: 6.82

Enquiry: # query: pIC50 of entry Cc1cc(-c2cc(C(C)NC(=O)c3ccccc3C)c3ccccc3n2)c[nH]1 (stereo not shown) [Example 117]
Return: 6.39
